Tested on: NCI-H460 lung
test_method_notes: NCI tumour cell line growth inhibition, 48 h
quantity: TGI

{"molecule": "COc1ccc(/C=N/C2=C(C#N)C(c3ccccc3)c3c(ccc4ccccc34)O2)cc1 (centres undefined)", "test_target": "NCI-H460 lung", "experimental_value": "47.1 µM"}
{"molecule": "O=c1c2cccnc2[nH]c2ccc3[nH]ncc3c12", "test_target": "NCI-H460 lung", "experimental_value": "> 10 µM"}
{"molecule": "Clc1ccc(C2c3ccccc3-c3nccn32)c(Cl)c1 (centres undefined)", "test_target": "NCI-H460 lung", "experimental_value": "24.6 µM"}
{"molecule": "COc1ccc(S(=O)(=O)Nc2cc(/C=C\\c3cc(OC)c(OC)c(OC)c3)cc(OC)c2OC)cc1", "test_target": "NCI-H460 lung", "experimental_value": "17 µM"}
{"molecule": "Cn1c(=O)cc(NNc2ccccc2)[nH]c1=O", "test_target": "NCI-H460 lung", "experimental_value": "> 100 µM"}
{"molecule": "Clc1ccc(/C=C2\\CCCC3C2=Nc2ccccc2NC3c2ccc(Cl)cc2)cc1 (centres undefined)", "test_target": "NCI-H460 lung", "experimental_value": "16.4 µM"}
{"molecule": "CCOC(=O)C1=C(C)N(c2ccc(OC)cc2)C2(O)C=CC(=O)C3C(=O)N(c4ccccc4)C(=O)C132 (centres undefined)", "test_target": "NCI-H460 lung", "experimental_value": "5.25 µM"}
{"molecule": "COc1ccc2c(c1)C(=O)c1c-2n(CCCNCCO)c(=O)c2ccccc12", "test_target": "NCI-H460 lung", "experimental_value": "0.137 µM"}
{"molecule": "CCCCCCC[C@@H](O)CC(=O)NC(CC(C)C)C(=O)NC(CCC(=O)O)C(=O)NC1C(=O)NC(C(C)C)C(=O)NC(CC(C)C)C(=O)NC(CO)C(=O)NC(CC(C)C)C(=O)NC(CO)C(=O)NC(C(C)CC)C(=O)OC1C (some centres undefined)", "test_target": "NCI-H460 lung", "experimental_value": "11.3 µM"}
{"molecule": "COc1cccc(/C=N/Nc2ncnc3c2cnn3-c2cccc(OC)c2)c1", "test_target": "NCI-H460 lung", "experimental_value": "> 25 µM"}
{"molecule": "COc1ccc2c(c1)c(=O)c1c(NCCN(C)C)ccc3c(=O)n(CCN(C)C)c(=O)n2c31", "test_target": "NCI-H460 lung", "experimental_value": "1.46 µM"}
{"molecule": "CCCNC(=O)C(C)(Cl)C(=O)c1ccccc1O (centres undefined)", "test_target": "NCI-H460 lung", "experimental_value": "> 100 µM"}
{"molecule": "CN(C)CCNc1ccc2c(=O)n(CCN(C)C)c(=O)n3c4ccccc4c(=O)c1c23", "test_target": "NCI-H460 lung", "experimental_value": "0.364 µM"}
{"molecule": "CN([O-])c1nc(N(C)[O-])nc(N2CCOCC2)n1.CN([O-])c1nc(N(C)[OH2+])nc(N2CCOCC2)n1.[Fe+3]", "test_target": "NCI-H460 lung", "experimental_value": "34.4 µM"}
{"molecule": "CCCCc1ccc(Nc2nc(=S)c3ncn(COCCO)c3[nH]2)cc1", "test_target": "NCI-H460 lung", "experimental_value": "> 100 µM"}
{"molecule": "COc1cccc2c(Nc3ccc(S(=O)(=O)Nc4ncccn4)cc3)c3ccc([N+](=O)[O-])cc3nc12", "test_target": "NCI-H460 lung", "experimental_value": "> 100 µM"}
{"molecule": "O[N+]1=CC=CCC1=S.On1ccccc1=S.[Zn]", "test_target": "NCI-H460 lung", "experimental_value": "2.87 µM"}
{"molecule": "CC1=C(C(=O)CC(=O)C(=O)Nc2ccccc2C(F)(F)F)Sc2ccccc2N1", "test_target": "NCI-H460 lung", "experimental_value": "> 100 µM"}
{"molecule": "COc1ccc(P2(=S)Oc3ccc(C(c4ccccc4)(c4ccccc4)c4ccccc4)cc3O2)cc1 (centres undefined)", "test_target": "NCI-H460 lung", "experimental_value": "34.8 µM"}

###

Test system: RXF 393 renal
test_method_notes: NCI tumour cell line growth inhibition, 48 h

{"molecule": "COc1cccc2c(Nc3ccc(S(=O)(=O)Nc4ncccn4)cc3)c3ccc([N+](=O)[O-])cc3nc12", "test_target": "RXF 393 renal", "op": ">", "TGI, µM": 100}
{"molecule": "CC(C)[C@]12O[C@H]1[C@@H]1O[C@]13[C@]1(O[C@H]1C[C@H]1C4=C(CC[C@@]13C)C(=O)OC4)[C@@H]2OC(=O)CN(C)C", "test_target": "RXF 393 renal", "op": "=", "TGI, µM": 0.0336}
{"molecule": "NC(=O)c1cccc(N2Cc3ccccc3OC3=C2C(=O)c2c(O)ccc(O)c2C3=O)c1", "test_target": "RXF 393 renal", "op": "=", "TGI, µM": 0.433}
{"molecule": "c1cc(-c2ccsc2-c2ccsc2)cs1", "test_target": "RXF 393 renal", "op": ">", "TGI, µM": 85.5}
{"molecule": "Cc1cc(C)c2c(=O)n(CN3CCC(C#N)(c4ccccc4)CC3)sc2n1", "test_target": "RXF 393 renal", "op": "=", "TGI, µM": 48}
{"molecule": "C/C=N\\n1c(C)n[nH]c1=O", "test_target": "RXF 393 renal", "op": ">", "TGI, µM": 100}

###

Listing: TGI of selected molecules
Test system: TK-10 renal
test_method_notes: NCI tumour cell line growth inhibition, 48 h

{"molecule": "CC(C)(C)OC(=O)N1CCCC1=O", "TGI": "> 10 µM"}
{"molecule": "CC1CN1C1=CC(=O)c2c(c(CO)cn2C)C1=O (configuration not stated)", "TGI": "1.49 µM"}
{"molecule": "FC(F)(F)c1ccc(-c2cncn2-c2ccccc2)cc1", "TGI": "> 100 µM"}
{"molecule": "CCOC(=O)N/N=C(\\Cc1ccccc1)OCC", "TGI": "> 100 µM"}
{"molecule": "O=C1c2ccc(O)cc2OC(c2cc(O)c(O)c(O)c2)C1O (configuration not stated)", "TGI": "69.3 µM"}
{"molecule": "COC(=O)CCCc1c(-c2[nH]c3ccccc3c2CCCC(=O)OC)[nH]c2ccccc12", "TGI": "> 100 µM"}
{"molecule": "CN1CCN(CC(=O)Nc2cccc3ccccc23)CC1", "TGI": "> 100 µM"}
{"molecule": "Clc1ccc(/C=C2\\CCCC3C2=Nc2ccccc2NC3c2ccc(Cl)cc2)cc1 (configuration not stated)", "TGI": "> 58.5 µM"}
{"molecule": "CN=C(NN)NS(=O)(=O)c1cc(C)c(Cl)cc1S", "TGI": "> 100 µM"}
{"molecule": "N#Cc1c(N)nc(Nc2cccc3ccccc23)c(C#N)c1C#N", "TGI": "> 10 µM"}
{"molecule": "Cn1cnc([N+](=O)[O-])c1[Se]c1ncnc2nc[nH]c12", "TGI": "> 100 µM"}
{"molecule": "O=C(CCN1CCCC1)CC(c1ccccc1)c1c(O)c2ccccc2oc1=O (configuration not stated)", "TGI": "> 100 µM"}
{"molecule": "COC(=O)CC1C(C)(C)C(=O)C2CC3=C4CC(=O)OC(c5ccoc5)C4(C)CCC3C1(C)C2=O (configuration not stated)", "TGI": "> 100 µM"}
{"molecule": "CCCCNc1nc(N)nc(Nc2ccc(Br)cc2)c1N=O", "TGI": "> 100 µM"}
{"molecule": "Cc1ccc(/C=C2\\N=C(N3CCOCC3)NC2=O)cc1", "TGI": "> 100 µM"}
{"molecule": "O=C(Nc1cccc(-c2cccc(F)c2)c1)C1CCN(Cc2cccc3cccnc23)CC1", "TGI": "16.7 µM"}
{"molecule": "CC(=O)OC[C@]1(C)C=C2C(=O)[C@](C)(O)C3(CC3)C(C)=C2[C@H]1OC(=O)N(C)CCN(C)C(=O)OC(C)(C)C", "TGI": "6.87 µM"}
{"molecule": "O=C(C[Si](CC(=O)c1cccc(C(F)(F)F)c1)CC(=O)c1cccc(C(F)(F)F)c1)c1cccc(C(F)(F)F)c1", "TGI": "14.1 µM"}
{"molecule": "CC1=C(C(=O)CC(=O)C(=O)Nc2ccccc2C(F)(F)F)Sc2ccccc2N1", "TGI": "> 100 µM"}
{"molecule": "COc1ccc2c(c1)C(=O)c1c-2n(CCCNCCO)c(=O)c2ccccc12", "TGI": "3.03 µM"}
{"molecule": "C[C@]12CC[C@@H]3c4cc(Br)c(O)c(Br)c4CC[C@H]3[C@@H]1CCC2=O", "TGI": "34.5 µM"}
{"molecule": "O[N+]1=CC=CCC1=S.On1ccccc1=S.[Zn]", "TGI": "2.47 µM"}
